Taken from patent US11198710B2.

Test system: wild-type rice
measurementDescription: Pyroxasulfone resistance test, wild-type rice, gellan gum medium, plant height
Type: in vivo
details: Oryza sativa, shoot growth, 4 to 5 days, Probit method, read-out: I50
property: pIC50
The meaning of pIC50 here: minus log10 of the concentration in molar units.

Input: Fill in: pIC50 of Cn1nc(C(F)(F)F)c(CS(=O)(=O)C2=NOC(C)(C)C2)c1OC(F)F [Pyroxasulfone] is ___
Output: 7.41

----------
Test system: rice plants comprising the TaQ8GTC0 gene introduced therein
measurementDescription: Herbicide resistance test of rice plants comprising the TaQ8GTC0 gene, gellan gum medium, plant height
Assay type: in vivo
details: Oryza sativa, lineage #3-9; read-out: I50
property: pIC50
The meaning of pIC50 here: minus log10 of the concentration in molar units.

Input: Fill in: pIC50 of Cn1nc(C(F)(F)F)c(CS(=O)(=O)C2=NOC(C)(C)C2)c1OC(F)F [Pyroxasulfone] is ___
Output: 6.00

----------
Test system: wild-type rice plant (Nipponbare)
measurementDescription: Sensitivity of wild-type rice (Nipponbare) to VLCFAE-inhibiting herbicides, gellan gum medium
Type: in vivo
details: Oryza sativa, 168 h; shoot growth, 1 week, Probit method; read-out: I50
property: pIC50
The meaning of pIC50 here: minus log10 of the concentration in molar units.

# compound, pIC50
measured = [
    ("CCC1(CC2(c3cccc(Cl)c3)CO2)C(=O)c2ccccc2C1=O (stereo not shown)", 7.21),
    ("CN(C(=O)COc1nc2ccccc2s1)c1ccccc1", 6.41),
    ("CCN(C(=O)n1nnn(-c2ccccc2Cl)c1=O)C1CCCCC1 [Fentrazamide]", 7.34),
    ("Cn1nc(C(F)(F)F)c(CS(=O)(=O)C2=NOC(C)(C)C2)c1OC(F)F", 7.32),
    ("CCOc1cc(Cl)c(CS(=O)(=O)C2=NOC(C)(C)C2)cc1Cl", 7.27),
    ("CCc1cccc(C)c1N(C(=O)CCl)C(C)COC (stereo not shown)", 6.20),
    ("COP(=S)(OC)SCC(=O)N(c1ccc(Cl)cc1)C(C)(C)C", 6.42),
    ("CCc1cccc(CC)c1N(COC)C(=O)CCl", 6.48),
]

Input: Fill in: pIC50 of CCN(CC)C(=O)n1cnc(S(=O)(=O)c2c(C)cc(C)cc2C)n1 is ___
Output: 6.88

Input: Fill in: pIC50 of CC(C)N(C(=O)COc1nnc(C(F)(F)F)s1)c1ccc(F)cc1 is ___
Output: 7.38

----------
Tested on: rice plants comprising the TaQ8GTC0 gene introduced therein
measurementDescription: Herbicide resistance test of rice plants comprising the TaQ8GTC0 gene, gellan gum medium, plant height
Format: in vivo
details: Oryza sativa, lineage #4-7; read-out: I50
property: pIC50
The meaning of pIC50 here: minus log10 of the concentration in molar units.

Input: Fill in: pIC50 of Cn1nc(C(F)(F)F)c(CS(=O)(=O)C2=NOC(C)(C)C2)c1OC(F)F [Pyroxasulfone] is ___
Output: 5.15

----------
Test system: rice plants comprising the TaQ8GTC0 gene introduced therein
measurementDescription: Herbicide resistance test of rice plants comprising the TaQ8GTC0 gene, gellan gum medium, plant height
Assay type: in vivo
details: Oryza sativa, lineage #3-12; read-out: I50
property: IC50 (nM)
Response body: numeric value in nM, unit text excluded.

Input: Fill in: IC50 of Cn1nc(C(F)(F)F)c(CS(=O)(=O)C2=NOC(C)(C)C2)c1OC(F)F is ___
Output: 67
